- Target or test system: human NLRP3 (Homo sapiens (Human))
- Sequence (Q96P20 whole entry): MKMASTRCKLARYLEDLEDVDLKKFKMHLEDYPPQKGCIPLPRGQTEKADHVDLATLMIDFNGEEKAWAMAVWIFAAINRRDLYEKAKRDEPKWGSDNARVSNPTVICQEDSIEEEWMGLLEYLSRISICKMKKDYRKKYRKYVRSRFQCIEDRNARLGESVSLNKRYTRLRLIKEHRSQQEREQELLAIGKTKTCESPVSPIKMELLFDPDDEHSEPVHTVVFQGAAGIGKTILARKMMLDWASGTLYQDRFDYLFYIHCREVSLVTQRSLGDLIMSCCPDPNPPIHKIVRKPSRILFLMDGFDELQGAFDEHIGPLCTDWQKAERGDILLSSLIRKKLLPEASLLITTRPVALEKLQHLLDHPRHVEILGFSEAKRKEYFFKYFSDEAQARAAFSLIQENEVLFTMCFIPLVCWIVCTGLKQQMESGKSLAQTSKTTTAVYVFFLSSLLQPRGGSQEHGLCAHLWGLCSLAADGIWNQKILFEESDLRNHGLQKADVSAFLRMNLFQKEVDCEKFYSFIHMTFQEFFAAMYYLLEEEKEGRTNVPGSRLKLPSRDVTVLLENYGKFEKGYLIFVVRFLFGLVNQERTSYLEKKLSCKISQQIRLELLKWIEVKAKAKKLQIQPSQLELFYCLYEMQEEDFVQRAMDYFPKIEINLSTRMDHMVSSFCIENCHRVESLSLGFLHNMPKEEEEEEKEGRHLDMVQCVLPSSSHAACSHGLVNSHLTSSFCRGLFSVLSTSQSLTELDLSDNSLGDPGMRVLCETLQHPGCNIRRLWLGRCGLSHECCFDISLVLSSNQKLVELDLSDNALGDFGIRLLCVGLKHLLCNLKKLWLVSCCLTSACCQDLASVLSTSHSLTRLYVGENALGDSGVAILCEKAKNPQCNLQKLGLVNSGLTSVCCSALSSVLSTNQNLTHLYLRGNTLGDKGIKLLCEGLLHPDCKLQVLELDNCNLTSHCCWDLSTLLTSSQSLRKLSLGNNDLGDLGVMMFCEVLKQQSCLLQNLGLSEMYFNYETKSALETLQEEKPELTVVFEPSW
- Assay explanation: Human PBMC NLRP3 Assay (LPS priming, ATP stimulation, cytokine measurement)
- Format: cell-based
- Particulars: human PBMC, LPS priming, ATP stimulation; read-out: PBMC IC50
Measure name: IC50

>  <Compound>
C[C@@H]1CCN(c2nnn[nH]2)C[C@H](NC(=O)C2(c3ccc(Cl)nc3O)CC2)C1 (single isomer, unassigned) [100A*]

>  <Reported result>
100 to 500 nM

$$$$
>  <Compound>
Cc1ccc(C2(C(=O)N[C@@H]3C[C@H](C)CCN(c4nnn[nH]4)C3)CC2)c(O)c1F (single isomer, unassigned) [74A*]

>  <Reported result>
< 10 nM

$$$$
>  <Compound>
CC(C)c1ccc(C2(C(=O)N[C@@H]3C[C@H](C)CCN(c4nnn[nH]4)C3)CC2)c(O)c1 (single isomer, unassigned) [27A*]

>  <Reported result>
< 10 nM

$$$$
>  <Compound>
C[C@@H]1CCN(c2nnn[nH]2)C[C@H](NC(=O)C2(c3c(F)cc(Cl)cc3F)CC2)C1 (single isomer, unassigned) [72A*]

>  <Reported result>
< 10 nM

$$$$
